Known inhibition at 20 µM of a selection of molecules
Biological target: KRas Q61H mutant (Homo sapiens (Human), UniProt P01116, Q61H)
Sequence (P01116 other isoform, or with tags, fused parts or gaps Q61H): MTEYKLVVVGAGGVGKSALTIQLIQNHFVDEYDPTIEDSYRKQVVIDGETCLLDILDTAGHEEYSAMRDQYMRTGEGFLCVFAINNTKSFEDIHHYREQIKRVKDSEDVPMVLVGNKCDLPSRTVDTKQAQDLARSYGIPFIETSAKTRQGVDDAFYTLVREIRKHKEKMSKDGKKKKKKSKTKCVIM
Experiment: Ras GTP Binding Domain Inhibition Assay, KRas Q61H mutant
Settings: 20 μM; + SOS; read-out: KRas Q61H mutant + SOS: % inh.
Procedure: A Ras Superfamily Activity Assay (as disclosed in International Application No. PCT/US2018/038613, filed Jun. 20, 2018, which is incorporated by reference in its entirety) was used as a specific assay to evaluate compounds against the following for the following Ras Superfamily proteins: KRas wild type, KRas Q61H mutant, KRas G12C mutant, KRas G12D mutant, Rac-1, and Rho-A. Buffer-I: • 25 mM Tris-HCl, pH 7.4 • 27 mM KCl • 137 mM NaCl • 1 mM MgCl2 • 1 mM DTT […]
metric_name: inhibition at 20 µM

molecule="COc1cc(-c2sc3nc(-c4nccn4C)nc(N[C@@H]4CC[C@H](OC)C4)c3c2-c2ccccc2)ccn1 (racemic)" endpoint_result="76 to 100%"
molecule="CO[C@@H]1CC[C@H](Nc2nc(-c3nccn3C)nc3sc(-c4ccn(C(C)C)n4)c(-c4ccccc4)c23)C1 (single isomer, unassigned)" endpoint_result="76 to 100%"
molecule="COc1cc(-c2sc3nc(-c4nccn4C)nc(N[C@@H]4CC[C@@H](OC)C4)c3c2-c2ccccc2)ccn1 (racemic)" endpoint_result="76 to 100%"
molecule=Cc1c(-c2ccn(C(C)C)n2)sc2nc(-c3nccn3C)nc(NCCN3CCS(=O)(=O)CC3)c12 endpoint_result="76 to 100%"
molecule=COCCCn1c(-c2nccn2C)nc2sc(-c3ccn(C(C)C)n3)c(C)c2c1=O endpoint_result=0%
molecule=COCCCn1c(-c2nccn2C)nc2sc(-c3ccn(C(C)C)n3)c(-c3ccccc3)c2c1=O endpoint_result=0%
molecule=COCCOc1nc(-c2nccn2C)nc2sc(-c3ccn(C(C)C)n3)c(C)c12 endpoint_result="1 to 25%"
molecule=COc1cccc(Nc2nc(-c3nccn3C)nc3sc(-c4ccn(C(C)C)n4)c(C)c23)c1 endpoint_result="46 to 75%"
molecule="COc1cccc(-c2sc3nc(-c4nccn4C)nc(NC4CCC(OC)C4)c3c2C)c1F (racemic)" endpoint_result="46 to 75%"
molecule="COCCn1ccc(-c2sc3nc(-c4nccn4C)nc(N[C@@H]4CC[C@H](OC)C4)c3c2C)n1 (racemic)" endpoint_result="76 to 100%"
molecule=CO[C@H]1C[C@H](CNc2nc(-c3nccn3C)nc3sc(-c4ccn(C(C)C)n4)c(C)c23)C1 endpoint_result="46 to 75%"
molecule=COCCn1ccnc1-c1nc(N[C@H]2C[C@@H](OC)C2)c2c(-c3ccccc3)c(-c3ccn(C)n3)sc2n1 endpoint_result="76 to 100%"
molecule=COCCCOc1nc(-c2nccn2C)nc2sc(-c3ccn(C(C)C)n3)c(C)c12 endpoint_result="46 to 75%"
molecule="COCC1(OC)CCN(c2nc(-c3nccn3C)nc3sc(-c4ccn(C(C)C)n4)c(C)c23)C1 (racemic)" endpoint_result="76 to 100%"
molecule="Cc1c(-c2ccn(C(C)C)n2)sc2nc(-c3nccn3C)nc(NCC3CN(C)CCO3)c12 (racemic)" endpoint_result="76 to 100%"

---

experiment: Assessment of Plasma Exposure in DBA/2J mice; format: in vivo, mouse; settings: male, DBA/2J, mouse, plasma, po, 100 mg/kg, Group 3: 100 mg/kg PO, Vehicle 1; mouse plasma
metric_name: AUC(0-t) (ng·h/mL)

compound="COCCNc1nc(-c2nccn2C)nc2sc(-c3cccc(OC)c3Cl)c(-c3ccccc3)c12 [Compound 9]" metric_name=AUC(0-t) endpoint_result=16700

---

molecular target: KRas G12D mutant (Homo sapiens (Human), UniProt P01116, G12D); assay: Ras GTP Binding Domain Inhibition Assay, KRas G12D mutant; conditions: 20 uM; without SOS; Table 8
Sequence (P01116 other isoform, or with tags, fused parts or gaps G12D): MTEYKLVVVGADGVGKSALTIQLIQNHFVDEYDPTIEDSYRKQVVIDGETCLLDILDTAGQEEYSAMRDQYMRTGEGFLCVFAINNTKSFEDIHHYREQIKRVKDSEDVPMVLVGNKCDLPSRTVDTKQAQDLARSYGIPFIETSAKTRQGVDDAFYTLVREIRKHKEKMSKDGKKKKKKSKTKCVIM
metric_name: KRas G12D mutant: % inh.

compound_structure=COCCCOc1nc(-c2nccn2C)nc2sc(-c3ccn(C(C)C)n3)c(-c3ccccc3)c12 metric_name="KRas G12D mutant: % inh." endpoint_result="0 (0 = 0% inhibition)"

---

experiment: Assessment of Plasma Exposure in DBA/2J mice; assay type: in vivo, mouse; details: male, DBA/2J, mouse, plasma, po, 100 mg/kg, Group 3: 100 mg/kg PO, Vehicle 1; mouse plasma
metric_name: half-life (h)

compound_structure=COCCNc1nc(-c2nccn2C)nc2sc(-c3cccc(OC)c3Cl)c(-c3ccccc3)c12 metric_name=half-life endpoint_result=2.11

---

test: Assessment of Plasma Exposure in DBA/2J mice; assay type: in vivo, mouse; conditions: male, DBA/2J, mouse, plasma, ip, 100 mg/kg, Group 5: 100 mg/kg IP, Vehicle 1; mouse plasma
metric_name: AUC(0-t) (ng·h/mL)

compound="COCCNc1nc(-c2nccn2C)nc2sc(-c3cccc(OC)c3Cl)c(-c3ccccc3)c12 [Compound 9]" metric_name=AUC(0-t) unit_descriptor=ng·h/mL endpoint_result=43000

---

test: Assessment of Plasma Exposure in DBA/2J mice; format: in vivo, mouse; details: male, DBA/2J, mouse, plasma, po, 25 mg/kg, Group 2: 25 mg/kg PO, Vehicle 1; mouse plasma; read-out: AUCINFobs
metric_name: AUC(0-inf) (ng·h/mL)

compound_structure=COCCNc1nc(-c2nccn2C)nc2sc(-c3cccc(OC)c3Cl)c(-c3ccccc3)c12 metric_name=AUC(0-inf) endpoint_result=3900

---

molecular target: KRas G12D mutant (Homo sapiens (Human), UniProt P01116, G12D); test: Ras GTP Binding Domain Inhibition Assay, KRas G12D mutant; settings: 20 uM; + SOS; Table 8
metric_name: KRas G12D mutant + SOS: % inh.

compound_structure=COCCOc1nc(-c2nccn2C)nc2sc(-c3ccn(C(C)C)n3)c(C)c12 endpoint_result="0 (0 = 0% inhibition)"

---

target: UniProt Q15382; assay: Rheb GTP Binding Domain Inhibition Assay; details: read-out: Rheb: % inh.
Sequence (Q15382 whole entry, species assumed, the tested form may be a part): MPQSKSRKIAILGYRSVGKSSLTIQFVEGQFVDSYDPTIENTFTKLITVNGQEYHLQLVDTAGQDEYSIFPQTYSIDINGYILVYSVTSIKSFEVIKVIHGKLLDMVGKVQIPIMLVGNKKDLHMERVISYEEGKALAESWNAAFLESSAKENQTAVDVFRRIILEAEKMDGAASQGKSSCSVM
metric_name: inhibition at 20 µM

compound=COc1cccc(-c2sc3nc(-c4nccn4C)nc(N[C@H]4C[C@H](OC)C4)c3c2-c2ccccc2)c1F metric_name="inhibition at 20 µM" endpoint_result="76 to 100%"
compound=COc1cc(-c2sc3nc(-c4nccn4C)nc(N[C@H]4C[C@H](OC)C4)c3c2-c2ccccc2)ccn1 metric_name="inhibition at 20 µM" endpoint_result="76 to 100%"
compound="COc1cc(-c2sc3nc(-c4nccn4C)nc(N[C@@H]4CC[C@H](OC)C4)c3c2-c2ccccc2)ccn1 (racemic)" metric_name="inhibition at 20 µM" endpoint_result="26 to 45%"
compound=COc1nccc(-c2sc3nc(-c4nccn4C)nc(N[C@H]4C[C@H](OC)C4)c3c2-c2ccccc2)c1F metric_name="inhibition at 20 µM" endpoint_result="76 to 100%"
compound="COc1cc(-c2sc3nc(-c4nccn4C)nc(N[C@@H]4CC[C@@H](OC)C4)c3c2-c2ccccc2)ccn1 (racemic)" metric_name="inhibition at 20 µM" endpoint_result="76 to 100%"

---

biological target: KRas G12D mutant (Homo sapiens (Human), UniProt P01116, G12D); test: Ras GTP Binding Domain Inhibition Assay, KRas G12D mutant; conditions: 20 uM; + SOS; Table 8
metric_name: KRas G12D mutant + SOS: % inh.

compound="COCCCn1c(-c2nccn2C)nc2sc(-c3ccn(C(C)C)n3)c(C)c2c1=O [Compound 31]" endpoint_result="0 (0 = 0% inhibition)"

---

molecular target: KRas wild type (Homo sapiens (Human)); assay: Ras GTP Binding Domain Inhibition Assay, KRas wild type; settings: + SOS, read-out: KRas wild type + SOS: % inh.
Sequence (P01116 other isoform, or with tags, fused parts or gaps): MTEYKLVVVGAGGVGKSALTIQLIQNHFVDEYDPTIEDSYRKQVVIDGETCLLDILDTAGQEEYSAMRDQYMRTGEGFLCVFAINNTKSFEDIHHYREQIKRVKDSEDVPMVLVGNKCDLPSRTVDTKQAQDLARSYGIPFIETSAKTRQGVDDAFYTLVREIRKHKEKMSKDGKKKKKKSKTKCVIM
metric_name: inhibition at 20 µM

molecule=COCCOc1nc(-c2nccn2C)nc2sc(-c3ccn(C(C)C)n3)c(C)c12 experimental_target="KRas wild type (Homo sapiens (Human))" endpoint_result=0%
molecule="COc1cccc(-c2sc3nc(-c4nccn4C)nc(NC4CCC(OC)C4)c3c2C)c1F (racemic)" experimental_target="KRas wild type (Homo sapiens (Human))" endpoint_result="46 to 75%"
molecule=COc1cc(Cn2c(-c3nccn3C)nc3sc(-c4ccn(C(C)C)n4)c(C)c3c2=O)ncn1 experimental_target="KRas wild type (Homo sapiens (Human))" endpoint_result="1 to 25%"
molecule="COCCn1ccc(-c2sc3nc(-c4nccn4C)nc(N[C@@H]4CC[C@H](OC)C4)c3c2C)n1 (racemic)" experimental_target="KRas wild type (Homo sapiens (Human))" endpoint_result="76 to 100%"
molecule="COc1cccc(-c2sc3nc(-c4nccn4C)nc(N[C@@H]4CC[C@@H](OC)C4)c3c2C)c1F (racemic)" experimental_target="KRas wild type (Homo sapiens (Human))" endpoint_result="76 to 100%"
molecule="COCCn1ccc(-c2sc3nc(-c4nccn4C)nc(NC[C@H]4CC[C@H]4COC)c3c2C)n1 (racemic)" experimental_target="KRas wild type (Homo sapiens (Human))" endpoint_result="76 to 100%"
molecule=COCCNc1nc(-c2cn(C)cn2)nc2sc(-c3cccc(OC)c3Cl)c(-c3ccc(OC)cc3)c12 experimental_target="KRas wild type (Homo sapiens (Human))" endpoint_result="76 to 100%"
molecule=COc1cccc(Nc2nc(-c3nccn3C)nc3sc(-c4ccn(C(C)C)n4)c(C)c23)c1 experimental_target="KRas wild type (Homo sapiens (Human))" endpoint_result="46 to 75%"
molecule=COc1cccc(Nc2nc(-c3nccn3C)nc3sc(-c4ccn(C(C)C)n4)c(C)c23)n1 experimental_target="KRas wild type (Homo sapiens (Human))" endpoint_result="46 to 75%"
molecule=COC1CCN(c2nc(-c3nccn3C)nc3sc(-c4ccn(C)n4)c(-c4ccccc4)c23)CC1 experimental_target="KRas wild type (Homo sapiens (Human))" endpoint_result="26 to 45%"
molecule="Cc1c(-c2ccn(C(C)C)n2)sc2nc(-c3nccn3C)nc(NCC3COCCN3C)c12 (racemic)" experimental_target="KRas wild type (Homo sapiens (Human))" endpoint_result="76 to 100%"
molecule="COCCO[C@H]1CC[C@@H](Nc2nc(-c3nccn3C)nc3sc(-c4ccn(C(C)C)n4)c(C)c23)C1 (racemic)" experimental_target="KRas wild type (Homo sapiens (Human))" endpoint_result="76 to 100%"
molecule=COCCCn1c(-c2nccn2C)nc2sc(-c3ccn(C(C)C)n3)c(-c3ccccc3)c2c1=O experimental_target="KRas wild type (Homo sapiens (Human))" endpoint_result="1 to 25%"
molecule=COc1cccc(-c2sc3nc(-c4nccn4C)nc(N[C@H]4C[C@H](OC)C4)c3c2-c2ccccc2)c1F experimental_target="KRas wild type (Homo sapiens (Human))" endpoint_result="76 to 100%"
molecule=COCCCn1c(-c2nccn2C)nc2sc(-c3ccn(C(C)C)n3)c(C)c2c1=O experimental_target="KRas wild type (Homo sapiens (Human))" endpoint_result="1 to 25%"
molecule=CO[C@H]1C[C@H](CNc2nc(-c3nccn3C)nc3sc(-c4ccn(C(C)C)n4)c(C)c23)C1 experimental_target="KRas wild type (Homo sapiens (Human))" endpoint_result="46 to 75%"
molecule=COc1cccc(-c2sc3nc(-c4nccn4C)nc(N[C@H]4C[C@H](OC)C4)c3c2C)c1F experimental_target="KRas wild type (Homo sapiens (Human))" endpoint_result="76 to 100%"
molecule=COCCCNc1nc(-c2nccn2C)nc2sc(-c3ccccc3)c(-c3ccccc3)c12 experimental_target="KRas wild type (Homo sapiens (Human))" endpoint_result="1 to 25%"
molecule=CO[C@H]1CNC[C@@H](Nc2nc(-c3nccn3C)nc3sc(-c4ccn(C(C)C)n4)cc23)C1 experimental_target="KRas wild type (Homo sapiens (Human))" endpoint_result="76 to 100%"
molecule="CO[C@H]1CC[C@@H](Nc2nc(-c3nccn3C)nc3sc(-c4ccn(C(C)C)n4)c(C)c23)C1 (racemic)" experimental_target="KRas wild type (Homo sapiens (Human))" endpoint_result="76 to 100%"
molecule=COc1nccc(-c2sc3nc(-c4nccn4C)nc(N[C@H]4C[C@H](OC)C4)c3c2-c2ccccc2)c1F experimental_target="KRas wild type (Homo sapiens (Human))" endpoint_result="76 to 100%"
molecule="COCC1(OC)CCN(c2nc(-c3nccn3C)nc3sc(-c4ccn(C(C)C)n4)c(C)c23)C1 (racemic)" experimental_target="KRas wild type (Homo sapiens (Human))" endpoint_result="76 to 100%"
molecule="COC1CCCN(c2nc(-c3nccn3C)nc3sc(-c4ccn(C(C)C)n4)c(C)c23)C1 (racemic)" experimental_target="KRas wild type (Homo sapiens (Human))" endpoint_result="76 to 100%"
molecule="Cc1c(-c2ccn(C(C)C)n2)sc2nc(-c3nccn3C)nc(NCC3CN(C)CCO3)c12 (racemic)" experimental_target="KRas wild type (Homo sapiens (Human))" endpoint_result="76 to 100%"
molecule=COCCOCCNc1nc(-c2nccn2C)nc2sc(-c3ccn(C(C)C)n3)c(C)c12 experimental_target="KRas wild type (Homo sapiens (Human))" endpoint_result="76 to 100%"
molecule="Cc1c(-c2ccn(C(C)C)n2)sc2nc(-c3nccn3C)nc(NCC3CCCO3)c12 (racemic)" experimental_target="KRas wild type (Homo sapiens (Human))" endpoint_result="76 to 100%"
molecule=Cc1c(-c2ccn(C(C)C)n2)sc2nc(-c3nccn3C)nc(NCCN3CCOCC3)c12 experimental_target="KRas wild type (Homo sapiens (Human))" endpoint_result="76 to 100%"
molecule=COCCCCn1c(-c2nccn2C)nc2sc(-c3ccn(C(C)C)n3)c(C)c2c1=O experimental_target="KRas wild type (Homo sapiens (Human))" endpoint_result="1 to 25%"
molecule=COCCNc1nc(-c2nccn2C)nc2sc(-c3cccc(OC)c3Cl)c(-c3ccc(OC)cc3)c12 experimental_target="KRas wild type (Homo sapiens (Human))" endpoint_result="76 to 100%"
molecule="COc1cc(-c2sc3nc(-c4nccn4C)nc(N[C@@H]4CC[C@H](OC)C4)c3c2-c2ccccc2)ccn1 (racemic)" experimental_target="KRas wild type (Homo sapiens (Human))" endpoint_result="76 to 100%"
